- tested on: human GCG receptor (human, UniProt P47871 26-477)
- Sequence (P47871 26-477): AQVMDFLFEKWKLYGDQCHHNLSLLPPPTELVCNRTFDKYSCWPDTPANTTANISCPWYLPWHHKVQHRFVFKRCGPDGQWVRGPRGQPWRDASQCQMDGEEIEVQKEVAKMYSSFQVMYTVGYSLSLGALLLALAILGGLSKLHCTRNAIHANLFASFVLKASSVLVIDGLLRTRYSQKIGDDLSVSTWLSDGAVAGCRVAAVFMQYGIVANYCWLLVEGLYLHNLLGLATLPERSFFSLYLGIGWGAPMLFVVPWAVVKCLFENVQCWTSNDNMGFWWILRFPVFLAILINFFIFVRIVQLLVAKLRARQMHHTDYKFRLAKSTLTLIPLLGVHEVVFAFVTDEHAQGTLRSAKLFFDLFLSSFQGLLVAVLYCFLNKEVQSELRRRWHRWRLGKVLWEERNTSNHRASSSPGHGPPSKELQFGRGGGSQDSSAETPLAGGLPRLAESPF
- assay protocol: cell-based or functional assay
Bridge positions count the residues as written; N and C are the ends. Square brackets hold non-standard residues; d marks the D form. Ends that are not written are not given here. * marks the point of attachment. Acetyl(2-(4-imidazolyl)) = O=C(Cc1c[nH]cn1)*; Aib = CC(C)(N)C(=O)O
endpoint: In vitro activity compared to native peptide (%) vs Glucagon

Here is how some binders turned out for In vitro activity compared to native peptide (%) vs Glucagon.
Q) Give the measured In vitro activity compared to native peptide (%) vs Glucagon of {Acetyl(2-(4-imidazolyl))}-GQGTFTSDLSKQMDEERAREFIEWLLAQKPSSGAPPPSHG [Triple agonist of SEQ ID NO: 17] .
A) < 0.1%

Q) What do you get for HGQGTFTSDCSKQLDGQAAQEFVAWLLAGGPSSGAPPPS [Triple agonist of SEQ ID NO: 44] ?
A) < 0.1%

Q) What do you get for H[Aib]QGTFTSDVSSYLDGQAQKEFIAWLVKGC [Triple agonist of SEQ ID NO: 2] ?
A) < 0.1%

Q) What do you get for Y[Aib]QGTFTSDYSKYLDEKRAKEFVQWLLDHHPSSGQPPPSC (bridge 16-20) [Triple agonist of SEQ ID NO: 42] ?
A) 206%

Continuing:
Q) Give the measured In vitro activity compared to native peptide (%) vs Glucagon of {Acetyl(2-(4-imidazolyl))}-[Aib]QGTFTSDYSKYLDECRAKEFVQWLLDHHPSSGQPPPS (bridge 15-19) [Triple agonist of SEQ ID NO: 73] .
A) 5.4%
